Could you please report measured IL-2, % of BMS, at 2.222222222 ug/mL for the items listed next?
molecular target: human LAG3 expressed on cells (human) (UniProt P18627); assay: cell-based or functional assay
Sequence (P18627 23-525): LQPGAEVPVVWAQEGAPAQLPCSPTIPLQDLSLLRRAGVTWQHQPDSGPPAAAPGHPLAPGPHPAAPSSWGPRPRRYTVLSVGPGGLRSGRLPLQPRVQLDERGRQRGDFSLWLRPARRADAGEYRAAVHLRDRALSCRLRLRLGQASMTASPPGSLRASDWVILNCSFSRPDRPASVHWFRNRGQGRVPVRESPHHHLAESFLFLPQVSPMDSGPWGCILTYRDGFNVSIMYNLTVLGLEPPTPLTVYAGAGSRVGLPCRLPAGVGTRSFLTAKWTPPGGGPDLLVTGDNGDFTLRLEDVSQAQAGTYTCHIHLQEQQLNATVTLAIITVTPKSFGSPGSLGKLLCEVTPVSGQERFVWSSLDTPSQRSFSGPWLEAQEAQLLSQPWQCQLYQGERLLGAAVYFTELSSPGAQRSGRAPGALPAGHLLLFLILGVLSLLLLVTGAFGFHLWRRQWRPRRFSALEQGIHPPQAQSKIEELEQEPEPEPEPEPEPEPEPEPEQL

Provide measured IL-2, % of BMS, at 2.222222222 ug/mL value, entry: sdAb fusion 25-17-2 (Fc fusion, not shown: a dimerising Fc or GST) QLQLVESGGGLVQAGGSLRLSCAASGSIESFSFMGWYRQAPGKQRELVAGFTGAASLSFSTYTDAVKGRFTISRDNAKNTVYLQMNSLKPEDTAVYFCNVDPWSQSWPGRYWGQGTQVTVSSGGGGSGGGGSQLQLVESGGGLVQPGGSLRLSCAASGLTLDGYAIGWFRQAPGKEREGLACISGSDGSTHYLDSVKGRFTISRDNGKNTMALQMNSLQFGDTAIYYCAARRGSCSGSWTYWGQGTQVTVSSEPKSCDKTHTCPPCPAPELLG
77.7%

Provide measured IL-2, % of BMS, at 2.222222222 ug/mL value, entry: sdAb fusion 25-17-1 (Fc fusion, not shown: a dimerising Fc or GST) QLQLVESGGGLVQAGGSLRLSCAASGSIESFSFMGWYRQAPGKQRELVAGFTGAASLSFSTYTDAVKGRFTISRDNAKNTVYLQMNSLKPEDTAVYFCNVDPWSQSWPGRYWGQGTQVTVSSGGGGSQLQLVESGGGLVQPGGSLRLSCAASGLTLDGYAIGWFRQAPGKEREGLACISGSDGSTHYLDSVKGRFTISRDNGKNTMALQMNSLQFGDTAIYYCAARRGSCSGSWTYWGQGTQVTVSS
82.7%

Provide measured IL-2, % of BMS, at 2.222222222 ug/mL value, entry: sdAb fusion 25-17-3 (Fc fusion, not shown: a dimerising Fc or GST) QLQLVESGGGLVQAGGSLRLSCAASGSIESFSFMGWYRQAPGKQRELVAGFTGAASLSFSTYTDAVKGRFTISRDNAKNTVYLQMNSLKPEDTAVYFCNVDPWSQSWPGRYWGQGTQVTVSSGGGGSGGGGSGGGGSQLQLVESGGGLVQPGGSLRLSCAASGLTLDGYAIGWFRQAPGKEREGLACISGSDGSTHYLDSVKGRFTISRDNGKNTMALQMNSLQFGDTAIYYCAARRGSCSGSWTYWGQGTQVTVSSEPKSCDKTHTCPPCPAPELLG
62.8%
